Provide the recorded IC50 for the entries that follow.
Target: Potassium voltage-gated channel subfamily B member 1 (Rattus norvegicus, UniProt P15387)
Sequence (P15387 whole entry): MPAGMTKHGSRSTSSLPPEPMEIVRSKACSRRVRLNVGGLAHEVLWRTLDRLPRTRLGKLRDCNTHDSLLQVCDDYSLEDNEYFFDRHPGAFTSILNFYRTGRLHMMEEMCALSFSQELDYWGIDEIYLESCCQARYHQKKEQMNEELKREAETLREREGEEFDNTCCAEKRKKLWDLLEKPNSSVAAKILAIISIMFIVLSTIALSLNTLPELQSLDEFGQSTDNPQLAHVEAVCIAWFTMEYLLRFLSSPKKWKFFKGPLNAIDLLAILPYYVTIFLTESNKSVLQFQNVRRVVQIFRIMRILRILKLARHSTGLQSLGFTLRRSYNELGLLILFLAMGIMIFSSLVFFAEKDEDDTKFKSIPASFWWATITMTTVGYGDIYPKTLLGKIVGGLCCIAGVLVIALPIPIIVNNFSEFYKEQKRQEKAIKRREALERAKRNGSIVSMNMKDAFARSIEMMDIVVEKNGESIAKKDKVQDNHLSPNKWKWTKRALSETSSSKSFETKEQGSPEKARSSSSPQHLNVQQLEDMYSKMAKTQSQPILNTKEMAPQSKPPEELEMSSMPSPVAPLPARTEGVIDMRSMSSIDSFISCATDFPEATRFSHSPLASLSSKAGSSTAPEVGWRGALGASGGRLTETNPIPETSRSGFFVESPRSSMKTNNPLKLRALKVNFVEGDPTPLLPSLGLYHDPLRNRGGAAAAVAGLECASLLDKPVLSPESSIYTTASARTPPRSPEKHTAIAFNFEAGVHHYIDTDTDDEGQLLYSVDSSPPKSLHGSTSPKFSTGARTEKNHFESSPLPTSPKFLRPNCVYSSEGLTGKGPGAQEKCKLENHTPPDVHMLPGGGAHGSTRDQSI
Experiment: Inhibition of rat potassium channel Kv2.1 by patch-clamp method
Give bare numbers, in µM.

- compound: "O=C1CCN([C@@H]2CCCC[C@H]2OCCc2cccc3ccccc23)C1 (stereo in doubt; 40)"
  IC50 / µM: 6
- compound: "O=C1CCN([C@@H]2CCCC[C@H]2OCCc2cccc3ccccc23)C1 (stereo in doubt; 26)"
  IC50 / µM: 2.8
- compound: "c1ccc2c(CCO[C@@H]3CCCC[C@H]3N3CCOCC3)cccc2c1"
  IC50 / µM: 3.2
- compound: "O=C1CCN([C@H]2CCCC[C@@H]2OCCc2cccc3ccccc23)C1"
  IC50 / µM: 8

Lab note: next compound to report on.
Query :: Consider the compound shown here: Clc1ccc(CCO[C@@H]2CCCC[C@H]2N2CCOCC2)cc1Cl What is its recorded IC50?
Result :: 2.4

---

Biological target: Potassium voltage-gated channel subfamily A member 5 (Homo sapiens)
Sequence (P22460 whole entry): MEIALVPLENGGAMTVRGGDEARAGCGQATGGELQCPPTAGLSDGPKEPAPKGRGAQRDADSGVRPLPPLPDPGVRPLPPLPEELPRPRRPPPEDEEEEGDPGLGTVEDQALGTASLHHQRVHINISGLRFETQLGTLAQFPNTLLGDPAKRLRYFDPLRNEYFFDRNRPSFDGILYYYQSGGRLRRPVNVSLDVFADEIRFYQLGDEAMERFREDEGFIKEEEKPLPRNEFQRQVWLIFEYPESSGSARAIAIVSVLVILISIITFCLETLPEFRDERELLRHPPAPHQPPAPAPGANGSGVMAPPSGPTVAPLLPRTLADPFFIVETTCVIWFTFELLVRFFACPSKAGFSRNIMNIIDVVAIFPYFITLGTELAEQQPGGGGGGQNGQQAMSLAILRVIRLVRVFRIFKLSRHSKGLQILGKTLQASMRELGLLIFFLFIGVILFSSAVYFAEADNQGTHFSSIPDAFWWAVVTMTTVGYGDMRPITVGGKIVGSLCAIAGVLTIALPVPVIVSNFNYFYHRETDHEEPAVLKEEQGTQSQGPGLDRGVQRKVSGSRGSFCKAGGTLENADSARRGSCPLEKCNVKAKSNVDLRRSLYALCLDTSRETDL
Assay: Inhibition of human potassium channel Kv1.5 by patch-clamp method
recordedEndpoint: IC50 (µM)
Numbers only, in µM.

Illustrative cases are given below, each with its answer.
- molecule: "c1ccc2c(CCO[C@@H]3CCCC[C@H]3N3CCOCC3)cccc2c1"
  testedOn: "Potassium voltage-gated channel subfamily A member 5 (Homo sapiens)"
  IC50 [µM]: 1.3
- molecule: "O=C(NCC1CCCCN1)c1cc(OCC(F)(F)F)ccc1OCC(F)(F)F (configuration not stated) [FLECAINIDE]"
  testedOn: "Potassium voltage-gated channel subfamily A member 5 (Homo sapiens)"
  IC50 [µM]: 51
- molecule: "O=C1CCN([C@@H]2CCCC[C@H]2OCCc2cccc3ccccc23)C1 (stereo in doubt; 40)"
  testedOn: "Potassium voltage-gated channel subfamily A member 5 (Homo sapiens)"
  IC50 [µM]: 5.9
- molecule: "Clc1ccc(CCO[C@@H]2CCCC[C@H]2N2CCOCC2)cc1Cl"
  testedOn: "Potassium voltage-gated channel subfamily A member 5 (Homo sapiens)"
  IC50 [µM]: 3.6
- molecule: "O=C1CCN([C@@H]2CCCC[C@H]2OCCc2cccc3ccccc23)C1 (stereo in doubt; 26)"
  testedOn: "Potassium voltage-gated channel subfamily A member 5 (Homo sapiens)"
  IC50 [µM]: 4.3

Hi there! I need IC50 for each item below, if you can.
1. CCN(CC)CC(=O)Nc1c(C)cccc1C [LIDOCAINE]
2. O=C1CCN([C@H]2CCCC[C@@H]2OCCc2cccc3ccccc23)C1

Result ::
2190
7.7

---

Experiment: in vivo
Conditions: CD1, mouse, iv
Description: Toxicity in intravenously dosed CD1 mouse
Kindly state LD50 for each of the entries shown.
One number for each entry, in µmol/kg.

Please review the entries below; each comes with its answer.
- molecule: "Brc1ccc(CCCO[C@@H]2CCCC[C@H]2N2CCOCC2)cc1"
  unitAnnotation: "µmol/kg"
  LD50: 209
- molecule: "c1ccc2cc(CCO[C@@H]3CCCC[C@H]3N3CCOCC3)ccc2c1"
  unitAnnotation: "µmol/kg"
  LD50: 130
- molecule: "c1cc(CCO[C@@H]2CCCC[C@H]2N2CCOCC2)c2ccoc2c1"
  unitAnnotation: "µmol/kg"
  LD50: 56
- molecule: "O=C(NCC1CCCCN1)c1cc(OCC(F)(F)F)ccc1OCC(F)(F)F (stereo not given) [FLECAINIDE]"
  unitAnnotation: "µmol/kg"
  LD50: 20
- molecule: "COc1ccc(CCO[C@@H]2CCCC[C@H]2N2CCOCC2)cc1OC"
  unitAnnotation: "µmol/kg"
  LD50: 97

Quick one: give me LD50 for each item below, same order please.
1. COc1ccc(CCCO[C@@H]2CCCC[C@H]2N2CCOCC2)cc1OC
2. c1ccc2c(CCO[C@@H]3CCCC[C@H]3N3CCOCC3)csc2c1
3. c1cc(CCO[C@@H]2CCCC[C@H]2N2CCOCC2)c2ccsc2c1
4. Clc1ccc(CCO[C@@H]2CCCC[C@H]2N2CCOCC2)cc1Cl

Result ::
112
52
38
228

Provide the reported LD50 of each entry below, same order.
1. Brc1ccccc1CCO[C@@H]1CCCC[C@H]1N1CCOCC1
2. Clc1cccc(Cl)c1CCO[C@@H]1CCCC[C@H]1N1CCOCC1
3. Brc1ccc(CCO[C@@H]2CCCC[C@H]2N2CCOCC2)cc1
4. COc1ccc(CCCO[C@@H]2CCCC[C@H]2N2CCOCC2)c(OC)c1
5. O=C1CCN([C@@H]2CCCC[C@H]2OCCc2cccc3ccccc23)C1 (stereo in doubt; 26)
6. c1ccc2c(CCO[C@@H]3CCCC[C@H]3N3CCOCC3)cccc2c1

Result ::
1: 86; 2: 76; 3: 103; 4: 130; 5: 227; 6: 42

---

Assay: Clearance in Wistar rat at 17 mg/kg. iv
Type: ADME, organism-based
Set-up: dose 17 mg/kg, route intravenous
Settings: in vivo
What clearance was measured for each of the following?
Numbers only, in mL/min/kg.

- compound: "O=C1CCN([C@@H]2CCCC[C@H]2OCCc2cccc3ccccc23)C1 (stereo in doubt; 26)"
  recordedEndpoint: "clearance"
  resultNumber: 38.7

Query :: Endpoint output: clearance of O=C1CCN([C@H]2CCCC[C@@H]2OCCc2cccc3ccccc23)C1 . Value?
Result :: 30.2

---

The reader will find pIC50 measurements below, all made with Sodium channel protein type 5 subunit alpha (Homo sapiens, UniProt Q14524).
Sequence (Q14524 whole entry): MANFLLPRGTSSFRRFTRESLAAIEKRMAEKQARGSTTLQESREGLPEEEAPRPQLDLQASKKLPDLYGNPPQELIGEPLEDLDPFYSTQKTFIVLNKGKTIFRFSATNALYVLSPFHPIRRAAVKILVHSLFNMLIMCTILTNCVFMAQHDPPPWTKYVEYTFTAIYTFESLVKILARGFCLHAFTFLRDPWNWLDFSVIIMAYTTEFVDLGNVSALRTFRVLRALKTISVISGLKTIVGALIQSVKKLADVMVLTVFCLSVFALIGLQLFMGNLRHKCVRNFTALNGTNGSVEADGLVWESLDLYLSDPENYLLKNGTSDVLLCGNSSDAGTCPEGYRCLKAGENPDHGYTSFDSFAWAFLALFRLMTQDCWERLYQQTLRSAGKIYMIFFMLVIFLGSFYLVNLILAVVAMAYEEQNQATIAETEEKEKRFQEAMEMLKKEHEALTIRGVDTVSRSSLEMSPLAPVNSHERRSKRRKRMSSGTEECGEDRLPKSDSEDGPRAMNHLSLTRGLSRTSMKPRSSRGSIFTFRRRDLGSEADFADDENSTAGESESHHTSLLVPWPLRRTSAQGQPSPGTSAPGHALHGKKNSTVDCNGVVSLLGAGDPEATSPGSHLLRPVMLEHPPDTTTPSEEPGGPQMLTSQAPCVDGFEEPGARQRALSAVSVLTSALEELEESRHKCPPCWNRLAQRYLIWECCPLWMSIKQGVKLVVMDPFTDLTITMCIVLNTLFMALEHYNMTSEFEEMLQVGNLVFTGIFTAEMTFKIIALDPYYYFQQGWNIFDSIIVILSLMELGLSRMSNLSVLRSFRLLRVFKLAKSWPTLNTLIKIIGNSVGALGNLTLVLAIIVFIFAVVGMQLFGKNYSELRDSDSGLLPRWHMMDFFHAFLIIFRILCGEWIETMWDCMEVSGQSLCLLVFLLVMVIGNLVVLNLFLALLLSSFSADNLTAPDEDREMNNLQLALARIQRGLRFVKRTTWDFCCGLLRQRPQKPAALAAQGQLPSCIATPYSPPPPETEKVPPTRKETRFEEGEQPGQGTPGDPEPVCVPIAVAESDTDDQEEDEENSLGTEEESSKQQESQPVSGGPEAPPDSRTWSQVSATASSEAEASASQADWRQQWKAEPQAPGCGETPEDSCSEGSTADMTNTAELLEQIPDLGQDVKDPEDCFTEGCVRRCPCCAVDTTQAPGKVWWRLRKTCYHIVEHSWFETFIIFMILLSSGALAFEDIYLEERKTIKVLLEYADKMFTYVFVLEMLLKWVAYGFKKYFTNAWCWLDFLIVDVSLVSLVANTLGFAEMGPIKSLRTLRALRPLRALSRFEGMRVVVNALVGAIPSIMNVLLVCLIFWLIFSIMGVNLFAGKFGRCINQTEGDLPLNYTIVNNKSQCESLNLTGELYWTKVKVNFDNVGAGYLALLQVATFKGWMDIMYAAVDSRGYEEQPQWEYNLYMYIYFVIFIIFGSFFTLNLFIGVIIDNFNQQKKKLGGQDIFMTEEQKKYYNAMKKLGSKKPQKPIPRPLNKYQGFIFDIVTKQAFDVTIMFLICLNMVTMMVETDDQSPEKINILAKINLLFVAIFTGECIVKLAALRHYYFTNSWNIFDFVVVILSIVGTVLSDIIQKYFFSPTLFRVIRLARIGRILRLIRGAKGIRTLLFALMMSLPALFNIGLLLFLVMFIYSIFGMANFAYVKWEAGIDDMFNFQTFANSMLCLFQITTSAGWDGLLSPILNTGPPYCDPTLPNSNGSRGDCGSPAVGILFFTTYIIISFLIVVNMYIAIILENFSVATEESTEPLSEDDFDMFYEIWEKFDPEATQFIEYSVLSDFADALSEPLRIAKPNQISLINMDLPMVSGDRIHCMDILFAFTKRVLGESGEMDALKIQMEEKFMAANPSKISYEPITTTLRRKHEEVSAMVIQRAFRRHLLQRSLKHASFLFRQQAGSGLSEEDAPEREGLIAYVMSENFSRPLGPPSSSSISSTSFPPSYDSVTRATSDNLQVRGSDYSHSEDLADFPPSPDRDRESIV
Answers are plain numbers, as −log10 of the molar value.

- compound: "O=C1CCN([C@@H]2CCCC[C@H]2OCCc2cccc3ccccc23)C1 (stereo in doubt; 40)"
  testedOn: "Sodium channel protein type 5 subunit alpha (Homo sapiens, UniProt Q14524)"
  pIC50: 4.96
- compound: "Clc1ccc(CCO[C@@H]2CCCC[C@H]2N2CCOCC2)cc1Cl"
  testedOn: "Sodium channel protein type 5 subunit alpha (Homo sapiens, UniProt Q14524)"
  pIC50: 4.82
- compound: "O=C1CCN([C@H]2CCCC[C@@H]2OCCc2cccc3ccccc23)C1"
  testedOn: "Sodium channel protein type 5 subunit alpha (Homo sapiens, UniProt Q14524)"
  pIC50: 4.89

For each listed entry, give its pIC50.
1. O=C1CCN([C@@H]2CCCC[C@H]2OCCc2cccc3ccccc23)C1 (stereo in doubt; 26)
2. c1ccc2c(CCO[C@@H]3CCCC[C@H]3N3CCOCC3)cccc2c1

Result ::
[4.60, 5.40]

---

Please provide measured log10 Activity for the entries that follow.
Test system: Rattus norvegicus
Test: CNS toxicity in iv dosed Sprague-Dawley rat assessed as cumulative convulsion dose
Type: organism-based
Settings: in vivo
All values: log10 Activity [µmol/kg].

- molecule: "Clc1cccc(Cl)c1CCO[C@@H]1CCCC[C@H]1N1CCOCC1"
  log10 Activity: 1.93

Provide log10 Activity for all items below, preserving their order.
1. Brc1ccc(CCO[C@H]2CCCC[C@H]2N2CCOCC2)cc1 (single isomer, unassigned)
2. COc1ccc(CCCCO[C@@H]2CCCC[C@H]2N2CCOCC2)cc1OC
3. CC(=O)N1CCN([C@@H]2CCCC[C@H]2OCCc2ccc3ccccc3c2)CC1

Result ::
[0.83, 1.83, 1.83]

---

Tested on: Rattus norvegicus
Test: CNS toxicity in iv dosed Sprague-Dawley rat assessed as cumulative convulsion dose
Format: organism-based
Conditions: in vivo
recordedEndpoint: Activity (µmol/kg)
Answers are plain numbers, in µmol/kg.

- molecule: "FC(F)(F)c1ccccc1CCO[C@H]1CCCC[C@H]1N1CCOCC1 (single isomer, unassigned)"
  testedOn: "Rattus norvegicus"
  unitAnnotation: "µmol/kg"
  Activity: 102
- molecule: "O=C1CCN([C@@H]2CCCC[C@H]2OCCc2csc3ccccc23)C1"
  testedOn: "Rattus norvegicus"
  unitAnnotation: "µmol/kg"
  Activity: 203
- molecule: "O=C1CCN([C@@H]2CCCC[C@H]2OCCc2ccccc2Br)C1"
  testedOn: "Rattus norvegicus"
  unitAnnotation: "µmol/kg"
  Activity: 155
- molecule: "O=C1CCN([C@@H]2CCCC[C@H]2OCC(c2ccccc2)c2ccccc2)C1"
  testedOn: "Rattus norvegicus"
  unitAnnotation: "µmol/kg"
  Activity: 155
- molecule: "COc1ccc(CCCO[C@@H]2CCCC[C@H]2N2CCOCC2)cc1OC"
  testedOn: "Rattus norvegicus"
  unitAnnotation: "µmol/kg"
  Activity: 109
- molecule: "C=C[C@H]1CN2CC[C@H]1C[C@@H]2[C@@H](O)c1ccnc2ccc(OC)cc12"
  testedOn: "Rattus norvegicus"
  unitAnnotation: "µmol/kg"
  Activity: 317

For the 8 molecules below, give their Activity values.
1. Brc1ccc(OCCO[C@@H]2CCCC[C@H]2N2CCOCC2)cc1
2. Brc1ccc(CCO[C@@H]2CCCC[C@H]2N2CCOCC2)c(Br)c1
3. Brc1ccccc1CCO[C@@H]1CCCC[C@H]1N1CCOCC1
4. O=C1CCN([C@@H]2CCCC[C@@H]2OCCc2cccc3ccccc23)C1
5. COc1ccc(CCO[C@@H]2CCCC[C@H]2N2CCC(=O)C2)cc1OC
6. c1cc(CCO[C@@H]2CCCC[C@H]2N2CCOCC2)c2ccsc2c1
7. COc1ccc(CCO[C@@H]2CCCC[C@H]2N2CCC3(C2)OCCO3)cc1OC
8. c1ccc2cc(CCO[C@@H]3CCC[C@H]3N3CCOCC3)ccc2c1

Result ::
83
123
125
145
235
54
91
187

Give Activity for each of the items listed below.
1. Brc1ccc(CCO[C@@H]2CCCC[C@H]2N2CCOCC2)cc1
2. COCCN(CCOC)[C@@H]1CCCC[C@H]1OCCc1ccc2ccccc2c1
3. COc1ccc(CCO[C@@H]2CCCC[C@H]2N2CCNCC2)cc1OC
4. O=C1CCN([C@@H]2CCCC[C@H]2OCCCC2CCCCC2)C1

Result ::
1: 91; 2: 83; 3: 392; 4: 300
